# TARGET DESC: JAK2 (Homo sapiens, UniProt O60674)
# Construct: host or cells: baculovirus expression system
# Sequence (O60674 whole entry): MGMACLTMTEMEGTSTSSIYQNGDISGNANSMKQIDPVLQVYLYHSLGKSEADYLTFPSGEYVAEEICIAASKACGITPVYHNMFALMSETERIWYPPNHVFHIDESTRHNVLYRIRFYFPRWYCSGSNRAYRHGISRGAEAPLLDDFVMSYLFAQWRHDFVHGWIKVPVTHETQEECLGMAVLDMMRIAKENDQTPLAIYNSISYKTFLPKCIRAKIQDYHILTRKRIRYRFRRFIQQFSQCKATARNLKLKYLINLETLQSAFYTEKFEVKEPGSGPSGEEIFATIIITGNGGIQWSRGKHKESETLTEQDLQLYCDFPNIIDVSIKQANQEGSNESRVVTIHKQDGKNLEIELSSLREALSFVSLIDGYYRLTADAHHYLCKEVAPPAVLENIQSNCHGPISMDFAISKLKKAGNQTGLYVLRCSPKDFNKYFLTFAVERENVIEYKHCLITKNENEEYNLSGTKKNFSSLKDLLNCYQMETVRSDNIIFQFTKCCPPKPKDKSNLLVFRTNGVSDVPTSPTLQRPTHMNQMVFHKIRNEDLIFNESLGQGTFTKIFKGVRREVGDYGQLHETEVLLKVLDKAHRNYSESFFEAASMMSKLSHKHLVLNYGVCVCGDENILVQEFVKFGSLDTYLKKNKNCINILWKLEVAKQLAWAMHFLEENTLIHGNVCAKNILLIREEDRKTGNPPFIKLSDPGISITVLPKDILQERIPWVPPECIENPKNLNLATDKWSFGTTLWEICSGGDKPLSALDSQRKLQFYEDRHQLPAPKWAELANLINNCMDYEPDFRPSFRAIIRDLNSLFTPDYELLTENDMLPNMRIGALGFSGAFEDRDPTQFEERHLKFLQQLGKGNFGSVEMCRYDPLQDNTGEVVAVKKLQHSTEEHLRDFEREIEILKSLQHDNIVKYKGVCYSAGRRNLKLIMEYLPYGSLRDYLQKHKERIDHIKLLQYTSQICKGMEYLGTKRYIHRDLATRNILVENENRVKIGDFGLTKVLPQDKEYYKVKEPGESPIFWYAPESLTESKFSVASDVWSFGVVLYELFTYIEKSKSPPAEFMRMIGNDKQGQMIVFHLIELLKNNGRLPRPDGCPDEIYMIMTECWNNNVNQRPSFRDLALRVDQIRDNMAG
# ASSAY PROCEDURE: Recombinant Human JAK2 Kinase Assay (TRF)
# Assay type: biochemical
# ASSAY SETUP: JAK2 kinase inhibition, 0.2 μM ATP; read-out: JAK2 Potency
QUANTITY: IC50

Example results:
[
  {
    "MOL SMILES": "COc1ccccc1-c1ccc2cnc(Nc3ccc(C4CCN(C[C@H](O)CO)CC4)cc3)nn12",
    "IC50": "< 100 nM"
  },
  {
    "MOL SMILES": "CN1CCC(c2ccc(Nc3ncc4ccc(-c5cccc(N(C)C)c5)n4n3)cc2)CC1",
    "IC50": "< 100 nM"
  },
  {
    "MOL SMILES": "CN(c1ccccc1-c1ccc2cnc(Nc3ccn(CCN4CCOCC4)n3)nn12)S(C)(=O)=O",
    "IC50": "< 100 nM"
  },
  {
    "MOL SMILES": "COc1cc(C2CCN(C[C@@H](C)O)CC2)ccc1Nc1ncc2ccc(-c3cc(Cl)ccc3OC)n2n1",
    "IC50": "100 to 1000 nM"
  }
]

For every item in the list below, what is its measured IC50?
1. COc1cc(N(C)C(=O)CN2CCOCC2)ccc1Nc1ncc2ccc(-c3ccccc3N(C)S(C)(=O)=O)n2n1
2. CN1CCN(c2ccc(Nc3ncc4ccc(-c5ccc(C=O)o5)n4n3)cc2)CC1

1000 to 10000 nM
< 100 nM

----------
# TARGET DESC: ALK (Homo sapiens, UniProt Q9UM73)
# Construct: host or cells: baculovirus expression system
# Sequence (Q9UM73 19-1620): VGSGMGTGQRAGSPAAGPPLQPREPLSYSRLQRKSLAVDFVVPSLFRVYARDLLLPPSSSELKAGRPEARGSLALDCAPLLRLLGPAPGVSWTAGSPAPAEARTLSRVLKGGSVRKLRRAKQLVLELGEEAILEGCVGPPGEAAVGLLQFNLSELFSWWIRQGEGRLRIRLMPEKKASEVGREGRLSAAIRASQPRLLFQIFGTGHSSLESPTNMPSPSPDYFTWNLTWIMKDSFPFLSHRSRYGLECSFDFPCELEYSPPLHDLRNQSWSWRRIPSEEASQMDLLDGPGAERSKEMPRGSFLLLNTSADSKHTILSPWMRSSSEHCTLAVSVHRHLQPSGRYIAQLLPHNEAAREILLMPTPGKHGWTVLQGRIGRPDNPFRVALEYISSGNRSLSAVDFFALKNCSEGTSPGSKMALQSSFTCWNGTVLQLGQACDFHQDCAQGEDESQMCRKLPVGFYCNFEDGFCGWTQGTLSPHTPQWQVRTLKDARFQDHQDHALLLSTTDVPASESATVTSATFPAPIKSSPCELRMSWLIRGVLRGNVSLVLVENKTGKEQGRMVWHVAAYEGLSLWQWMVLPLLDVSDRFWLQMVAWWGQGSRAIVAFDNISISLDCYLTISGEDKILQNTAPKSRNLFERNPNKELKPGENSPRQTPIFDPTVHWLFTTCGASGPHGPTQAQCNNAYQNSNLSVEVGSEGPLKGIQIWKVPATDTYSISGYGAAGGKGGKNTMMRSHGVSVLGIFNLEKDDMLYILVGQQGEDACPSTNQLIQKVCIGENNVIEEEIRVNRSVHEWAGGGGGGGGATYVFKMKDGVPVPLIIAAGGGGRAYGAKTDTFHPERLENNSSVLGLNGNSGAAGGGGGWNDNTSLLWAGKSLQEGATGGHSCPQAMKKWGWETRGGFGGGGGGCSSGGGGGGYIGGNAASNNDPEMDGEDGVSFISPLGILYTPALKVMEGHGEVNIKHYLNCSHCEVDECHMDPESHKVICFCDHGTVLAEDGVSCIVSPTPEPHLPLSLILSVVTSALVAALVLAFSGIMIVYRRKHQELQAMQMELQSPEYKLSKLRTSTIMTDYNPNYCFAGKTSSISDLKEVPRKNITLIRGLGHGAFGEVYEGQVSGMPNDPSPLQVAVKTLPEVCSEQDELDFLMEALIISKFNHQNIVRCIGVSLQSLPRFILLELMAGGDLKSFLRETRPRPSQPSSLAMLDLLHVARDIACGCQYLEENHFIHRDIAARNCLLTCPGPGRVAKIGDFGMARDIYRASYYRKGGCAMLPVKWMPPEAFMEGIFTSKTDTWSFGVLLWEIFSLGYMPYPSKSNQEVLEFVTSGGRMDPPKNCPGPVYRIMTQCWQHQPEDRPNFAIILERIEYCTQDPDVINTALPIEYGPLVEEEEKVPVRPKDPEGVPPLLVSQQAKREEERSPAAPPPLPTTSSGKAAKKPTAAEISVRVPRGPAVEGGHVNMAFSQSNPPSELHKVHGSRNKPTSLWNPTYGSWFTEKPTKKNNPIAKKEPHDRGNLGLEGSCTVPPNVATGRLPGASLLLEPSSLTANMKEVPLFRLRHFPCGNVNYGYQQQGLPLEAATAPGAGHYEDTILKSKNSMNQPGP
# ASSAY PROCEDURE: ALK Kinase Assay (ELISA/TRF, PLC-γ substrate)
# Format: biochemical
# ASSAY SETUP: ALK Kinase Inhibition; read-out: ALK Potency
pIC50: −log10 of the molar value.
What pIC50 was measured for each of the following?

Below, 3 molecules whose answers are already recorded.
[
  {
    "MOLECULE": "COc1cc(N2CCC(F)(F)CC2)ccc1Nc1ncc2ccc(-c3ccccc3OC)n2n1 [Example 1470]",
    "VALUE REPORTED": "6.00 to 7.00"
  },
  {
    "MOLECULE": "COc1ccc(Cl)cc1-c1ccc2cnc(Nc3ccc(N4CCOCC4)c(F)c3)nn12 [Example 188]",
    "VALUE REPORTED": "5.00 to 6.00"
  },
  {
    "MOLECULE": "COc1ccc(-c2ccc3cnc(Nc4cccc(C5(O)CCNCC5)c4)nn23)cn1 [Example 1551]",
    "VALUE REPORTED": "6.00 to 7.00"
  }
]

Requested field: pIC50. Item: CN1CCN(Cc2ccc(Nc3ncc4ccc(-c5ccc(S(C)(=O)=O)cc5)n4n3)cc2)CC1 [Example 355]
5.00 to 6.00

----------
# TARGET DESC: ALK (Homo sapiens)
# Construct: host or cells: baculovirus expression system
# ASSAY PROCEDURE: ALK Kinase Assay (ELISA/TRF, PLC-γ substrate)
# Assay type: biochemical
# ASSAY SETUP: ALK Kinase Inhibition; read-out: ALK Potency
What IC50 was measured for each of the following?

[
  {
    "COMPOUND": "C[C@H](O)CN1CCN(c2cc([S@@+](C)[O-])c(Nc3ncc4ccc(-c5ccccc5N(C)S(C)(=O)=O)n4n3)cc2F)CC1 [Example 1485]",
    "TARGET DESC": "ALK (Homo sapiens)",
    "IC50": "100 to 1000 nM"
  },
  {
    "COMPOUND": "COc1ccc(Cl)cc1-c1ccc2cnc(Nc3ccc(N4CCCC4)cc3)nn12",
    "TARGET DESC": "ALK (Homo sapiens)",
    "IC50": "1000 to 10000 nM"
  },
  {
    "COMPOUND": "CN1CCN(C(=O)c2ccc(Nc3ncc4ccc(-c5cccc(S(=O)(=O)NC(C)(C)C)c5)n4n3)cc2)CC1",
    "TARGET DESC": "ALK (Homo sapiens)",
    "IC50": "100 to 1000 nM"
  },
  {
    "COMPOUND": "COc1ccc(-c2ccc3cnc(Nc4ccc(OC)c(N5CCOCC5)c4)nn23)cn1",
    "TARGET DESC": "ALK (Homo sapiens)",
    "IC50": "100 to 1000 nM"
  },
  {
    "COMPOUND": "CN1CCN(c2ccc(Nc3ncc4ccc(-c5ccc(S(C)(=O)=O)cc5)n4n3)cc2)CC1",
    "TARGET DESC": "ALK (Homo sapiens)",
    "IC50": "100 to 1000 nM"
  }
]

For the 4 compounds below, give their IC50 values.
1. COc1ccc(Cl)cc1-c1ccc2cnc(Nc3ccc(N4CCN(CC(C)(C)O)CC4)cc3)nn12
2. Clc1cccc(-c2ccc3cnc(Nc4ccc(N5CCC(N6CCOCC6)CC5)cc4)nn23)c1
3. COc1ccccc1-c1ccc2cnc(Nc3ccc(N4CCN(C[C@H](C)O)CC4)c(F)c3)nn12
4. CN1CCN(c2ccc(Nc3ncc4ccc(-c5ccccc5)n4n3)cc2)CC1

1. < 100 nM
2. 100 to 1000 nM
3. < 100 nM
4. < 100 nM

Dear reader, for each entry below, please note its IC50.
1. C[S+]([O-])c1ccccc1-c1ccc2cnc(Nc3ccc(N4CCOCC4)cc3)nn12 (centres unmarked)
2. C[C@@H](O)CN1CCN(c2ccc(Nc3ncc4ccc(-c5ccc(S(C)(=O)=O)cc5)n4n3)cc2)CC1
3. Clc1cccc(-c2ccc3cnc(Nc4ccc(N5CCCCC5)cc4)nn23)c1
4. CN1CCN(c2ccc(Nc3ncc4ccc(-c5ccccc5S(C)(=O)=O)n4n3)cc2)CC1
5. CC(=O)N1CCCC(C)(C)c2ccc(Nc3ncc4ccc(-c5cnn(C)c5)n4n3)cc21

1. 1000 to 10000 nM
2. 100 to 1000 nM
3. > 10000 nM
4. 1000 to 10000 nM
5. 1000 to 10000 nM

Record IC50 per entry; entries follow.
1. COc1cc(N2CCC(N3CCN(C)CC3)CC2)ccc1Nc1ncc2ccc(-c3cccnc3)n2n1
2. COCCN1CCc2ccc(Nc3ncc4ccc(-c5ccccc5)n4n3)cc2CC1
3. C[C@H](O)CN1CCN(c2ccc(Nc3ncc4ccc(-c5cccc(S(=O)(=O)NC(C)(C)C)c5)n4n3)cc2F)CC1

1: < 100 nM; 2: < 100 nM; 3: < 100 nM

Hi there! I need IC50 for each item below, if you can.
1. COc1cc(N2CCN(C)CC2)ccc1Nc1ncc2ccc(-c3cccnc3OC)n2n1
2. COc1cc(N2CCCC(N3CCN(C(C)=O)CC3)C2)ccc1Nc1ncc2ccc(-c3ccccc3OC)n2n1 (centres unmarked)
3. COc1ccccc1-c1ccc2cnc(Nc3ccc(F)c(N4CCOCC4)c3)nn12

["< 100 nM", "< 100 nM", "100 to 1000 nM"]

----------
Give pIC50 for every item shown.
# TARGET DESC: JAK2 (Homo sapiens, UniProt O60674)
# Construct: host or cells: baculovirus expression system
# ASSAY PROCEDURE: Recombinant Human JAK2 Kinase Assay (TRF)
# Assay type: biochemical
# ASSAY SETUP: JAK2 kinase inhibition, 0.2 μM ATP; read-out: JAK2 Potency
pIC50: −log10 of the molar value.

// below: answered molecules
[
  {
    "MOLECULE": "COc1cc(N2CCN(C[C@H](C)O)CC2)ccc1Nc1ncc2ccc(-c3cc(Cl)ccc3OC)n2n1",
    "pIC50": "> 7.00"
  },
  {
    "MOLECULE": "NC(=O)CN1CCC(c2ccc(Nc3ncc4ccc(C5=CCNCC5)n4n3)cc2)CC1",
    "pIC50": "> 7.00"
  },
  {
    "MOLECULE": "COc1cc2c(cc1Nc1ncc3ccc(-c4cccc(S(=O)(=O)NC5CC5)c4)n3n1)CCN(C[C@@H](C)O)CC2",
    "pIC50": "6.00 to 7.00"
  },
  {
    "MOLECULE": "COc1cc(C2CCN(C)CC2O)ccc1Nc1ncc2ccc(-c3ccccc3OC)n2n1 (racemic)",
    "pIC50": "> 7.00"
  },
  {
    "MOLECULE": "CN1CCN(c2ccc(Nc3ncc4ccc(-c5cn(C)cn5)n4n3)cc2)CC1",
    "pIC50": "> 7.00"
  }
]

List the reported pIC50 of each molecule below.
1. COc1cc(CN2CCN(C)CC2)ccc1Nc1ncc2ccc(-c3ccccc3N(C)S(C)(=O)=O)n2n1
2. COc1ccc(-c2ccc3cnc(Nc4ccc(C5CCN(CC(N)=O)CC5)cc4OC)nn23)c(N(C)S(C)(=O)=O)c1
3. Cc1nc2cc(Nc3ncc4ccc(-c5cccc(S(=O)(=O)NC(C)(C)C)c5)n4n3)ccc2s1
4. CN(c1ccccc1-c1ccc2cnc(Nc3ccc(N4CCOCC4)cn3)nn12)S(C)(=O)=O
5. COc1cc([C@@]2(O)CCN(CC(N)=O)C[C@@H]2O)ccc1Nc1ncc2ccc(-c3ccccc3N(C)S(C)(=O)=O)n2n1 (racemic)

1. 5.00 to 6.00
2. 5.00 to 6.00
3. > 7.00
4. > 7.00
5. 6.00 to 7.00

Where do these numbers come from? They come from patent US8471005B2.
